In this section we review reported Estimated Cell Growth Virus-uninfected Day 7 values for a set of compounds.
System: T-45 cells
Type: cell-based, human
Details: Dosage 0.10 mg/ml; no-drug control 1.2x10^6

Example entries and their recorded answers appear below.
> print(dat)
                                   compound  meas.value
1  CCN1C[C@H](O)[C@@H](O)[C@H](O)[C@H]1CO [EtDNJ, N-ethyl-deoxynojirimycin]    1.3x10^6
2  CN1C[C@H](O)[C@@H](O)[C@H](O)[C@H]1CO [MeDNJ, N-methyl-deoxynojirimycin]    1.0x10^6
3  OC[C@@H]1NC[C@H](O)[C@H]1O [LAB, 1,4-dideoxy-1,4-imino-L-arabinitol]    1.5x10^6

Proceeding to the next compound to report its Estimated Cell Growth Virus-uninfected Day 7.
Req: Tell me the measured Estimated Cell Growth Virus-uninfected Day 7 of CCCCN1C[C@H](O)[C@@H](O)[C@H](O)[C@H]1CO [BuDNJ, N-n-butyl-deoxynojirimycin] , please.
Resp: 1.4x10^6

###

Test system: T-45 cells
Assay type: cell-based, human
Conditions: non-infected cells, over the concentration range used (Fig. 3, Table 1); result in words
parameter.measured: cytotoxicity

> print(dat)
                               smiles.input  target.or.test.system  meas.value
1     CN1C[C@H](O)[C@@H](O)[C@H](O)[C@H]1CO             T-45 cells   cytotoxic
2    CCN1C[C@H](O)[C@@H](O)[C@H](O)[C@H]1CO             T-45 cells   cytotoxic
3  O[C@H]1[C@H](O)[C@@H](O)CN2CC[C@H](O)[C@H]12             T-45 cells   cytotoxic

###

System: HIV-1
Experiment: Virus titer (TCID) of HIV-1 infected T-cell cultures grown with test compound
Format: cell-based
Settings: Table 3, Example 2; 0.1 mg/ml; T-45 and MOLT-4 cells, 10^4 TCID on 10^4 cells; control 10^6
parameter.measured: VIRUS TITER HIV-1

Example entries and their recorded answers appear below.
> print(dat)
                               smiles.input  parameter.measured  meas.value
1     CN1C[C@H](O)[C@@H](O)[C@H](O)[C@H]1CO   VIRUS TITER HIV-1        10^2
2    CCN1C[C@H](O)[C@@H](O)[C@H](O)[C@H]1CO   VIRUS TITER HIV-1        10^3
3  CCCCN1C[C@H](O)[C@@H](O)[C@H](O)[C@H]1CO   VIRUS TITER HIV-1          10

Proceeding to the next compound to report its VIRUS TITER HIV-1.
Req: Tell me the measured VIRUS TITER HIV-1 of "OC[C@H]1NC[C@H](O)[C@@H](O)[C@@H]1O" , please.
Resp: 10^5
